# Method: Metabolic stability in human liver microsomes assessed as half life
# Format: ADME, Microsome
# Conditions Used: liver microsomes
Property Label: half-life

| Compound | half-life |
| --- | --- |
| C[C@H](Cn1cnc2c(N)ncnc21)OCP(=O)(O)OCCOCCCCCCCCCCC#Cc1ccc(S(F)(F)(F)(F)F)cc1 | > 2 h |
| C[C@H](Cn1cnc2c(N)ncnc21)OCP(=O)(O)OCCOCCCCCCCCCCCCCCC#CC(F)(F)F | > 2 h |
| C[C@H](Cn1cnc2c(N)ncnc21)OCP(=O)(O)O [TENOFOVIR ANHYDROUS] | > 2 h |

Request: Annotate the compound C[C@H](Cn1cnc2c(N)ncnc21)OCP(=O)(O)OCCOCCCCCCCCCCCCc1ccc(S(F)(F)(F)(F)F)cc1 with its measured half-life.
Result: > 2 h

Request: Output measured half-life for this item: C[C@H](Cn1cnc2c(N)ncnc21)OCP(=O)(O)OCCOCCCCCCCCCCCCCCCC(F)(F)F
Result: > 2 h

Request: Give the measured half-life for C[C@H](Cn1cnc2c(N)ncnc21)OCP(=O)(O)OCCOCCCCCCCCCCCCCC#CC(F)(F)F
Result: > 2 h

Request: Look up and state reported half-life for C[C@H](Cn1cnc2c(N)ncnc21)OCP(=O)(O)OCCOCCCCCCCCCCCCCCCCC(F)(F)F
Result: > 2 h
